experiment: chemical genetic growth profiling, strain panel (AID 1159580);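 further: tested at 20 µM; growth read once vehicle control cultures reached saturation at 30 °C; 1 = growth at the plate median or of vehicle wells; lower values mean less growth of the strain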; conditions: S. cerevisiae deletion strains, growth OD, locus YGL167C, strain pmr1, active compounds read low
Out of some 5,500 compounds screened, about 2,000 (36%) were called active. About 18% were inconclusive and are not listed. The list shows a part of the results.
Entries and their measured normalized growth follow.
Form field (numeric): enter value without unit.

Study these solved cases before continuing.
compound	property	quantitative_result
O=C(Cc1ccccc1)NO	normalized growth	0.969
CC(=O)O[C@@](C)(CCC=C(C)C)C1CC=C(C)CC1 (stereo partly specified)	normalized growth	0.991
CCCCCCCCCCCCC[N+](C)(C)Cc1ccccc1	normalized growth	0.0698
CCOC(=O)c1ncn2c1CN(C)C(=O)c1cc(F)ccc1-2	normalized growth	1.03
COc1ccc(-c2cc(=O)c3c(O)cc(OC)c(OC)c3o2)c(OC)c1	normalized growth	0.998

Then this compound:
What normalized growth value was documented for this compound, CN=C(NC#N)NCCSCc1nc(N=C(N)N)cs1 ? 0.982

====

Entries and their normalized growth values follow.
experiment: chemical genetic growth profiling, strain panel (AID 1159580);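 further: tested at 20 µM; growth read once vehicle control cultures reached saturation at 30 °C; 1 = growth at the plate median or of vehicle wells; lower values mean less growth of the strain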; conditions: S. cerevisiae deletion strains, growth OD, locus YJR075W, strain HOC1, active compounds read low
In all, about 5,500 compounds went through this assay and about 2,000 (36%) were called active. Inconclusive results (about 18%) are left out. This is one part of the list.
Answer field: number only, no words.

Worked cases, normalized growth given:
compound	normalized growth
COC1C(O)C(O)C(O)[C@@H](O)C1O (some centres not stated)	1.01
CN(C)/C=C(\C#N)C(=O)Nc1ccc(F)c(Cl)c1	1.01
COC(=O)c1c(C)[nH]c(C)c1C(C)=O	0.999
CN(C)CCCCSC(=N)N	1.04
NC(=O)N1c2ccccc2CC(=O)c2ccccc21	1.05
Cc1cc(C)c2c(-n3cccc3)c(C(=O)c3ccc(Cl)cc3)sc2n1	0.987

--- query ---
Which normalized growth value belongs to N#C/C(=C\c1ccc(O)c(O)c1)C(=O)Nc1ccccc1 ? 1.01

====

assay: chemical genetic growth profiling, strain panel (AID 1159580);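 further: tested at 20 µM; growth read once vehicle control cultures reached saturation at 30 °C; 1 = growth at the plate median or of vehicle wells; lower values mean less growth of the strain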; settings: S. cerevisiae deletion strains, growth OD, locus YNL175C, strain NOP13
Out of some 5,500 compounds screened, about 2,000 (36%) were called active. Roughly 18% stayed inconclusive and do not appear here. Rule as the data show it: active = normalized growth mostly below about 0.91 (no sharp cut-off); inconclusive = no clear call, values can overlap the other calls; inactive = mostly above about 0.92. The list shows a part of the results.
Your answer must be one of the following: active, inactive

A selection of reference data follows.
compound	answer_label
Cc1nc(N=Nc2ccc(C(=O)O)cc2)c(COP(=O)(O)O)c(C=O)c1O	inactive
OC[C@H]1NC[C@@H](O)[C@@H]1O	inactive

Call for entry N=c1nc(N2CCCCC2)cc(N)n1O : inactive

Recorded test outcome, item CC(C)[C@@]1(NC(=O)[C@@H]2C=C3c4cccc5[nH]cc(c45)C[C@H]3N(C)C2)O[C@@]2(O)[C@@H]3CCCN3C(=O)[C@H](Cc3ccccc3)N2C1=O inactive

Look up the recorded call for NCC1(CC(=O)O)CCCCC1 in this test. inactive

Hi, do you know how Cc1cccc(C#Cc2ccccc2)n1 came out in this test? inactive

Hi team, can someone confirm the assay call for NC/C=C/C(=O)O ? inactive

What did the test return for CN=C(NC#N)NCCSCc1nc[nH]c1C ? inactive

GET /call?item= CC(C)C[C@H]1C(=O)N2CCC[C@H]2[C@]2(O)O[C@](NC(=O)[C@@H]3C=C4c5cccc6[nH]c(Br)c(c56)C[C@H]4N(C)C3)(C(C)C)C(=O)N12 returns the recorded outcome of this test. inactive

Recorded test call requested for CC(=O)SCC[N+](C)(C)C inactive

Record lookup: outcome of this test for NC(=O)COc1c(F)cc(SCCNS(=O)(=O)c2ccccc2)cc1F ? inactive

Name the outcome recorded for C[N+](C)(C)CC(=O)O in the assay. inactive

Look up the recorded call for Nc1nc2[nH]c(=O)cnc2c(=O)[nH]1 in this test. inactive

Assay outcome for N[C@@H](CS(=O)O)C(=O)O : what was it? inactive

Dear colleague, could you share the recorded outcome for O=c1[nH]c2ccccc2c2ccccc12 when you have a moment? inactive

Which outcome was entered for the compound OCCN(CCO)c1nc(N2CCCCC2)c2nc(N(CCO)CCO)nc(N3CCCCC3)c2n1 in this test? inactive

What was the test verdict on NC(N)=Nc1nc(CSCCC(N)=NS(N)(=O)=O)cs1 ? inactive

Record lookup: outcome of this test for Oc1ccc(O)cc1 ? inactive

Hey, what did the test say about O=C(O)c1cc(=O)c2ccc(Cl)cc2[nH]1 ? inactive

GET /call?item= Oc1ccc2c3c1O[C@H]1c4[nH]c5c(c4C[C@@]4(O)[C@@H](C2)N(CC2CC2)CC[C@]314)C[C@@]1(O)[C@H]2Cc3ccc(O)c4c3[C@@]1(CCN2CC1CC1)[C@H]5O4 returns the recorded outcome of this test. inactive

For c1ccc2cc(CC3=NCCN3)ccc2c1 , which call appears in the assay record? inactive

What did this assay record as the result for Ic1ccccc1CNC1C2CCN(CC2)C1C(c1ccccc1)c1ccccc1 (stereo not drawn) ? inactive

State the result this test recorded for CCCCCCCCCCCCC/C=C/[C@@H](O)[C@@H](N)CO . active

Recorded test outcome, item C[C@H]1OC[C@@H](C[N+](C)(C)C)O1 inactive

Provenance of the data: PubChem BioAssay AID1159580
